Molecular target: Calcium and integrin-binding protein 1 (Homo sapiens) (UniProt Q99828)
Sequence (Q99828 whole entry, looked up): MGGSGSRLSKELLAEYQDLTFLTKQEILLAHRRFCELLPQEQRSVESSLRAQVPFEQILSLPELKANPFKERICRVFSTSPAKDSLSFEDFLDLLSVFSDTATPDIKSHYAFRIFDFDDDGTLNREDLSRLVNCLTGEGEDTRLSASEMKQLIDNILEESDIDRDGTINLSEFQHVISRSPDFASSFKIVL
Assay: Primary qHTS for Identification of Calcium Integrin Binding Protein 1 (CIB1) Competitor (AID 1508620);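 further: GST tagged CIB1 binding a fluorescein labelled alphaIIb integrin peptide tracer; top concentration of the series differs between compounds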
Details: CIB1-GST / FITC-alphaIIb peptide fluorescence polarization; series mostly up to 114 µM
Inconclusive results are not listed. Activity calls are given as the source filed them. The call rests on the fitted dose curve; in most records, active means well fitted inhibition curve with a large enough effect; inconclusive means small, poorly fitted or top-dose-only effect; inactive means flat fitted curve, though single readings scatter.
Observation Type: activity change, negative = inhibition

CC(O)CCCCn1c(=O)c2c(ncn2C)n(C)c1=O (configuration not stated) ... inactive
O=C(O)c1ccc[n+]([O-])c1 ... inactive
CCCC(O)C(CC)CO (configuration not stated) ... inactive
CCc1nnc(NS(=O)(=O)c2ccc(N)cc2)s1 ... inactive
CC(C)(C)NCC(O)COc1cccc2c1CCC(=O)N2 (configuration not stated) ... inactive
CCN1CC(CCN2CCOCC2)C(c2ccccc2)(c2ccccc2)C1=O (configuration not stated) ... inactive

Next compound, please.
q: Bench note: what activity change, negative = inhibition did C[C@@H](N)C(=O)O show?
a: inactive

###

System: C2A
Assay: qHTS profiling for inhibitors of Plasmodium falciparum proliferation (AID 504749); further: nearly all actives have a fitted effect of over 60% in size
Conditions: P. falciparum in erythrocytes, SYBR Green DNA, 72 h; series mostly up to 28.7 µM
Results filed as inconclusive are left out. Activity calls are given as the source filed them. Calls follow the shape of the dose curve; as a rule, active = well fitted inhibition curve with a large enough effect; inconclusive = small, poorly fitted or top-dose-only effect; inactive = flat fitted curve, though single readings scatter.
Answer with one of the outcomes Y (active), N (inactive)

q: Short answer needed: outcome of this test for O=C(NCCCN1CCOCC1)c1ccc(Cl)cc1 ?
a: N

q: Short answer needed: outcome of this test for Cc1ccccc1N=Nc1ccc(N=Nc2c(O)ccc3ccccc23)c(C)c1 ?
a: N

q: Short answer needed: outcome of this test for N[C@@H](Cc1ccc(O)cc1)C(=O)O ?
a: N

q: Short answer needed: outcome of this test for NCC1CCC(C(=O)Oc2ccc(CCC(=O)O)cc2)CC1 (stereo unspecified) ?
a: N

q: Short answer needed: outcome of this test for O=C(/C=C/c1ccccc1)OCc1ccccc1 ?
a: N

q: Short answer needed: outcome of this test for O=c1[nH]c2cc(C(F)(F)F)c(N3CCOCC3)cc2n(CP(=O)(O)O)c1=O ?
a: N

q: Short answer needed: outcome of this test for CCN1CC(CCN2CCOCC2)C(c2ccccc2)(c2ccccc2)C1=O (stereo unspecified) ?
a: N

q: Short answer needed: outcome of this test for CC1CCc2cc(F)cc3c(=O)c(C(=O)O)cn1c23 (stereo unspecified) ?
a: N

q: Short answer needed: outcome of this test for NS(=O)(=O)c1cc2c(cc1C(F)(F)F)NCNS2(=O)=O ?
a: N

q: Short answer needed: outcome of this test for CC(=O)N(CC(O)CO)c1c(I)c(C(=O)NCC(O)CO)c(I)c(C(=O)NCC(O)CO)c1I (stereo unspecified) ?
a: N

q: Short answer needed: outcome of this test for Cc1cc(=O)[nH]c(=S)[nH]1 ?
a: N

q: Short answer needed: outcome of this test for C[C@@H]1CCC[C@H](C)N1 ?
a: N

q: Short answer needed: outcome of this test for CC(=O)NCc1c(I)c(NC(C)=O)c(I)c(C(=O)O)c1I ?
a: N

q: Short answer needed: outcome of this test for CCCCCCCCCCOc1cc2c(=O)c(C(=O)OCC)c[nH]c2cc1OCC ?
a: Y

q: Short answer needed: outcome of this test for CN1CCCN=C1COC(=O)C(O)(c1ccccc1)C1CCCCC1 (stereo unspecified) ?
a: N

q: Short answer needed: outcome of this test for Nc1ccc(C(=O)Oc2ccccc2)c(O)c1 ?
a: N

q: Short answer needed: outcome of this test for C[N+](C)(C)CC[N+]1(C)Cc2c(Cl)c(Cl)c(Cl)c(Cl)c2C1 ?
a: N

q: Short answer needed: outcome of this test for Cc1cccc(C)c1NC(=O)CC12CCCN1CCC2 ?
a: N

q: Short answer needed: outcome of this test for O=C(OOC(=O)c1ccccc1)c1ccccc1 ?
a: N

q: Short answer needed: outcome of this test for COc1ccc2cc(CCC(C)=O)ccc2c1 ?
a: N

q: Short answer needed: outcome of this test for CCCCCCCC(=O)OCC(O)CO (stereo unspecified) ?
a: N

q: Short answer needed: outcome of this test for Cn1c([N+](=O)[O-])cnc1COC(N)=O ?
a: N

q: Short answer needed: outcome of this test for O=C1c2ccccc2C(=O)C1c1ccc(Br)cc1 ?
a: N

q: Short answer needed: outcome of this test for CCCCCC(C)N (stereo unspecified) ?
a: N

q: Short answer needed: outcome of this test for CC(C)=CCC/C(C)=C/CO ?
a: N

q: Short answer needed: outcome of this test for CC(=O)Nc1cccc(O)c1 ?
a: N
